molecular target: Kallikrein-7 (Mus musculus) (UniProt Q91VE3); experiment: Inhibition of mouse KLK7 at 30 uM using MOCAcArg-Pro-Lys-Pro-Val-Glu-Nva-Trp-Arg-Lys(Dnp)-NH2 as substrate preincubated for 10 mins followed by substrate addition measured after 30 mins by fluorescence assay relative to control
Sequence (Q91VE3 whole entry): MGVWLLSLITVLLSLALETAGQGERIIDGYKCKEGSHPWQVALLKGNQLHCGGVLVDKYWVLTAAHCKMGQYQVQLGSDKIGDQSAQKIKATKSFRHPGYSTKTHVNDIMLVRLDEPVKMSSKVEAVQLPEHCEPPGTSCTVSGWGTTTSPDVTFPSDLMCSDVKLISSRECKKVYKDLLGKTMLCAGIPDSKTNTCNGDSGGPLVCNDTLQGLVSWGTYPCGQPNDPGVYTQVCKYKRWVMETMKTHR
Here the recorded inhibition is given for each entry.
measured_quantity: inhibition

                                   molecule  measurement
0  COc1cccc(Cl)c1CC1CN/C(=N\N(C)C)CN(CC(=O)Nc2cccc(-c3cnn(C)c3)c2)C1=O (racemic)          67%
1  CN(C)/N=C1/CN(CC(=O)Nc2cccc(-c3cnn(C)c3)c2)C(=O)C(Cc2ccccc2C#N)CN1 (racemic)          22%
2  COc1ccc(Cl)cc1C[C@@H]1CN/C(=N\N(C)C)CN(CC(=O)Nc2cccc(-c3cnn(C)c3)c2)C1=O        -1.2%
3  COc1cc(Cl)ccc1CC1CN/C(=N\N(C)C)CN(CC(=O)Nc2cccc(-c3cnn(C)c3)c2)C1=O (racemic)        -4.1%
4  COc1ccc(Cl)cc1C[C@@H]1CN/C(=N\N(C)C)CN(CC(=O)Nc2cccc(C(=O)O)c2)C1=O          11%
5  CN(C)/N=C1/CN(CC(=O)Nc2cccc(-c3cnn(C)c3)c2)C(=O)C(Cc2ccccc2Cl)CN1 (racemic)          59%
6  COc1ccccc1C[C@@H]1CN/C(=N\N(C)C)CN(CC(=O)Nc2cccc(-c3cnn(C)c3)c2)C1=O          41%
7  COc1ccc(Cl)cc1C[C@@H]1CN/C(=N\N(C)C)CN([C@@H](C)C(=O)Nc2cccc(-c3cnn(C)c3)c2)C1=O          32%

* * *

# maps each entry to its pIC50
target: Kallikrein-7 (Homo sapiens, UniProt P49862); assay: Inhibition of recombinant human C-terminal His10-tagged KLK7 (E23 to H252 residues) using MOCAcArg-Pro-Lys-Pro-Val-Glu-Nva-Trp-Arg-Lys(Dnp)-NH2 as substrate preincubated for 10 mins followed by substrate addition measured after 30 mins by fluorescence assay
Sequence (P49862 whole entry, the tested form may be a part): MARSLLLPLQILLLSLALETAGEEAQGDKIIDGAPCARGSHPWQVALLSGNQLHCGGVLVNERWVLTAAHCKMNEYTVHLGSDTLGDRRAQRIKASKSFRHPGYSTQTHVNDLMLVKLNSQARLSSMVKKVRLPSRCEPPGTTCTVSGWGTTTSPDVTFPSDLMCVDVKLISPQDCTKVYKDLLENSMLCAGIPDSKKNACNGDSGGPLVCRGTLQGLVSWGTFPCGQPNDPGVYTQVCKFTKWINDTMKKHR
pIC50: −log10 of the molar value.
measured_quantity: pIC50

>>> df
                                   compound  bound_sign  measurement
0  CN(C)/N=C1/CN(CC(=O)Nc2cccc(-c3cnn(C)c3)c2)C(=O)C(Cc2c(Cl)cccc2C#N)CN1 (racemic)           =         4.96
1  COc1ccccc1C[C@@H]1CN/C(=N\N(C)C)CN(CC(=O)Nc2cccc(-c3cnn(C)c3)c2)C1=O           =         5.62
2  CN(C)/N=C1/CN(CC(=O)Nc2cccc(-c3cnn(C)c3)c2)C(=O)C(Cc2c(F)cccc2F)CN1 (racemic)           =         5.16
3  COc1cccc(C)c1CC1CN/C(=N\N(C)C)CN(CC(=O)Nc2cccc(-c3cnn(C)c3)c2)C1=O (racemic)           =         4.89
4  Cc1cccc(C)c1CC1CN/C(=N\N(C)C)CN(CC(=O)Nc2cccc(-c3cnn(C)c3)c2)C1=O (racemic)           =         5.28
5  CN(C)/N=C1/CN(CC(=O)Nc2cccc(-c3cnn(C)c3)c2)C(=O)C(Cc2c(F)cccc2Cl)CN1 (racemic)           =         6.03
6  COc1cc(Cl)ccc1CC1CN/C(=N\N(C)C)CN(CC(=O)Nc2cccc(-c3cnn(C)c3)c2)C1=O (racemic)           =         5.12
7  CN(C)/N=C1/CN(CC(=O)Nc2cccc(-c3cnn(C)c3)c2)C(=O)C(Cc2c(Cl)cccc2Cl)CN1 (stereo in doubt; (+)-22g)           <         4.52
